- Tested on: RWP1 cells
- MEASUREMENT_PROTOCOL: Effect of anti-FZD5 Fabs on proliferation of pancreatic cancer cell lines (percent growth inhibition)
- Format: cell-based, human
- CONDITION_DETAILS: Fab 2 μg/ml
Examples of molecules with documented percent growth inhibition, RWP1 2 μg/ml follow.
API: value field is a number in %; no unit string.

# MOLECULE, UOM, percent growth inhibition, RWP1 2 μg/ml
records = [
    ("Fab-2909: anti-FZD5 Fab with antibody variable region Fv-2909; CDR SEQ ID NOs: 35, 36, 48, 87, 124, 161 (antibody, V domains shown) VH: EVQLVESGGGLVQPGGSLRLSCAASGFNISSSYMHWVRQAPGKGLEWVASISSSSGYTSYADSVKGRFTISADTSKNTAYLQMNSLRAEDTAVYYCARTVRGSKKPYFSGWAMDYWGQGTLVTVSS VL: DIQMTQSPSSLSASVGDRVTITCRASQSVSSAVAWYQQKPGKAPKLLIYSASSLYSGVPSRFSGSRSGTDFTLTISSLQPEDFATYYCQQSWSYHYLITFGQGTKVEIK", "%", 12.89),
]

INPUT: // query percent growth inhibition, RWP1 2 μg/ml value for entry Fab-2925: anti-FZD5 Fab with antibody variable region Fv-2925; CDR SEQ ID NOs: 35, 36, 64, 102, 140, 172 (antibody, V domains shown) VH: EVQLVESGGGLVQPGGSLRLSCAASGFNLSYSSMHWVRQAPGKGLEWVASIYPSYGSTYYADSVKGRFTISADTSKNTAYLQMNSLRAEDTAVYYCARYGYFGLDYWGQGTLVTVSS VL: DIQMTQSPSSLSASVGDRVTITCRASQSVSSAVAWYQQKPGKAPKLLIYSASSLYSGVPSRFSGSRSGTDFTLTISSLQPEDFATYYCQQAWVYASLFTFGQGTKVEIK
OUTPUT: 30.69

INPUT: // query percent growth inhibition, RWP1 2 μg/ml value for entry Fab-2900: anti-FZD5 Fab with antibody variable region Fv-2900; CDR SEQ ID NOs: 35, 36, 39, 78, 115, 153 (antibody, V domains shown) VH: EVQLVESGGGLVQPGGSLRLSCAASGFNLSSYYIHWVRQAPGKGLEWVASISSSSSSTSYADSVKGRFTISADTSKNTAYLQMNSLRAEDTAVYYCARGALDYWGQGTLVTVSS VL: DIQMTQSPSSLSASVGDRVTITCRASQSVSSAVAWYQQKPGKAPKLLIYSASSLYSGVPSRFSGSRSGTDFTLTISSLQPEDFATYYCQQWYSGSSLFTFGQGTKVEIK
OUTPUT: −28.30

INPUT: // query percent growth inhibition, RWP1 2 μg/ml value for entry Fab-2935: anti-FZD5 Fab with antibody variable region Fv-2935; CDR SEQ ID NOs: 35, 36, 74, 111, 150, 178 (antibody, V domains shown) VH: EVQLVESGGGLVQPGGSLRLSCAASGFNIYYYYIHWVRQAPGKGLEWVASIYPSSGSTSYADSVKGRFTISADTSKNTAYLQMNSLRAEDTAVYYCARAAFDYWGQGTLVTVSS VL: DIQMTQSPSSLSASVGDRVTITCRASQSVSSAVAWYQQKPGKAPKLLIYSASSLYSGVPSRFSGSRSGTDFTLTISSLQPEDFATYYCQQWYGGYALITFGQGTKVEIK
OUTPUT: −14.51
